measurement.target: T1, human type I collagen (VitroCol solution, Advanced Biomatrix, cat#5007-A) (human, UniProt P02452 179-1192; P08123 91-1104, limits assumed)
T1 construct: In the assay the collagen was gelled and dried as a fibril film in microtiter wells; also called human collagen; Human Collagen Type I
T1 sequence (P02452 179-1192 limits assumed, chain 1 of 2): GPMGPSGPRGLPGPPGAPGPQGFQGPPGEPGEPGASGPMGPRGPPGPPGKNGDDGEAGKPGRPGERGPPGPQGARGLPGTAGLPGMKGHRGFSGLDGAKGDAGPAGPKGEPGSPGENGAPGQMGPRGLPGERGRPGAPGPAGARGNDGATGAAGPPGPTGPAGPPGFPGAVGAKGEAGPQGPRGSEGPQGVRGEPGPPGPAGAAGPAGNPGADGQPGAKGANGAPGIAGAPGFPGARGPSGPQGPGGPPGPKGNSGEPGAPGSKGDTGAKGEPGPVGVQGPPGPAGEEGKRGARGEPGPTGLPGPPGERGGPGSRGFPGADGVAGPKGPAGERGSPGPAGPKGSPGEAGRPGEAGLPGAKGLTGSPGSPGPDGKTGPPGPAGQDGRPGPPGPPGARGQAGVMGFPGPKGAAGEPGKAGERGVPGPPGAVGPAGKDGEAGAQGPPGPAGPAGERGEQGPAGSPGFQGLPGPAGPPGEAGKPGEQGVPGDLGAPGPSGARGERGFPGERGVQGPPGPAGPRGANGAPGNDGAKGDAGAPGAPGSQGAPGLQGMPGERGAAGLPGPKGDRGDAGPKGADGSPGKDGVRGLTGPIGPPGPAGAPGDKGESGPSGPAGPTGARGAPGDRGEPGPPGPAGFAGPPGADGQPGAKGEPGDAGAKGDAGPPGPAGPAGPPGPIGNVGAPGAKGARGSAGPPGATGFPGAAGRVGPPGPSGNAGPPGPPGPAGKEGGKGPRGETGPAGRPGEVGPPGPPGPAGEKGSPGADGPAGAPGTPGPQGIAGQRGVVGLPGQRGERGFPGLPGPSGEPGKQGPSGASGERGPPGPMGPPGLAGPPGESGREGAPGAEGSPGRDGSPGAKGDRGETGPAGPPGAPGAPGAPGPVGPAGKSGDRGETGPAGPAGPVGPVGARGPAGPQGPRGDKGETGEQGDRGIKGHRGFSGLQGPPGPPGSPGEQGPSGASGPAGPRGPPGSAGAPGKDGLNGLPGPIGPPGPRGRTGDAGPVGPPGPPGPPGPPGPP
T1 sequence (P08123 91-1104 limits assumed, chain 2 of 2): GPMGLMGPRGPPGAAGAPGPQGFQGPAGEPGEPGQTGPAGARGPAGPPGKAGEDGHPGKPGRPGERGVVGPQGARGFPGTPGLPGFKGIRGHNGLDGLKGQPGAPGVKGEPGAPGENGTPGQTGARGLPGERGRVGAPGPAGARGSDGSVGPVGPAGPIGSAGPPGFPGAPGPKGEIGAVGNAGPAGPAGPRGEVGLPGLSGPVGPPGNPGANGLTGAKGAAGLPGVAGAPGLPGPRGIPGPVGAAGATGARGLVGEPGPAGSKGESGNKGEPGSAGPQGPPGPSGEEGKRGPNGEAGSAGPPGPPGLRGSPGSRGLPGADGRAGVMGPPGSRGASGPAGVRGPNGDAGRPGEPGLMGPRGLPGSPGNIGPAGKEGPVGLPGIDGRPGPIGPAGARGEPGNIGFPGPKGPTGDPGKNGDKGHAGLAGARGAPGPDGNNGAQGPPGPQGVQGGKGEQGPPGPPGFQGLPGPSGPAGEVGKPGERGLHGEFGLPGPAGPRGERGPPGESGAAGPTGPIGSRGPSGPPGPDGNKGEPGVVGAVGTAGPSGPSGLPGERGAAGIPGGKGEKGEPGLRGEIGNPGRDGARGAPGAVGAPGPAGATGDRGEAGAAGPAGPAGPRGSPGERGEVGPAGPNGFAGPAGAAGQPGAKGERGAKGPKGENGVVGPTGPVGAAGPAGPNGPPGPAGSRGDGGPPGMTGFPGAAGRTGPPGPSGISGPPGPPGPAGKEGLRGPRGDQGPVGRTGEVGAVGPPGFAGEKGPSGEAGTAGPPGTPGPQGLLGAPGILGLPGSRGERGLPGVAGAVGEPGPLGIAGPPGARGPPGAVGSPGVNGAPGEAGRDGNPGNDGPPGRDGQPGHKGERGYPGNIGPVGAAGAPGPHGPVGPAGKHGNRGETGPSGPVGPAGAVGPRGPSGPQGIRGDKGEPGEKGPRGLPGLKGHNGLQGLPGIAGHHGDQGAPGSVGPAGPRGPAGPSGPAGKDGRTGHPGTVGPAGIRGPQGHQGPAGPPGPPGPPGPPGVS
test.details: dried collagen film in microtiter plate; unbound compound by ICP-MS (Gd); fit to 1 binding site
Bridge positions count the residues as written; N and C are the ends. Square brackets hold non-standard residues; d marks the D form. Ends that are not written are not given here. GdDOTAGA = Gd(III)-DOTAGA chelate, amide-linked; Bip = N[C@@H](Cc1ccc(-c2ccccc2)cc1)C(=O)O
Kindly supply the reported pKd values for the records listed here.
Answers are plain numbers, as −log10 of the molar value.

The examples below pair each entry with its known result.
* GdDOTAGA-K(GdDOTAGA)WHCTTK(GdDOTAGA)FPHHYCLY[Bip]-NH2 (disulfide 4-13, Tested as the Gd(III)-DOTAGA chelate conjugate of the cyclic peptide; also called CMPD ID 2) [Compound ID No. 2] | 5.31
* GKWHCTTKFPHHYCLY (Bip (L-4,4'-biphenylalanine) at position 17; C-terminal amide (NH2); cyclized through Cysteine-Cysteine disulfide bond (Cys5-Cys14); GdDOTAGA coupled by amide bonds to the primary amines (N-terminal amine and lysine epsilon amino groups), Tested as the Gd(III)-DOTAGA chelate conjugate of the cyclic peptide; also called CMPD ID 1; Comp ID No. 1) [Compound ID No. 1] | 5.42
* KWHCYTKFPHHYCVY[Bip]-NH2 (disulfide 4-13; not fully specified (residues 1, 7, N-terminus); printed as K-W-H-C-Y-T-K-F-P-H-H-Y-C-V-Y-Bip; also: GdDOTAGA on N-terminal amine or lysine epsilon amino groups, Tested as the Gd(III)-DOTAGA chelate conjugate of the cyclic peptide; also called CMPD ID 4) [Compound ID No. 4] | 5.02

Here is another binder to look at.
Memo: GdDOTAGA-K(GdDOTAGA)YWHCTTK(GdDOTAGA)FPHHYCLY[Bip]-NH2 (disulfide 5-14, Tested as the Gd(III)-DOTAGA chelate conjugate of the cyclic peptide; also called CMPD ID 3) [Compound ID No. 3] , reported pKd: 4.53

Cited source: patent US20160375155A1
